# Assay Remarks: qHTS assay to test for compound auto fluorescence at 460 nm (blue) in HEK293 cell free culture (AID 720681); note: potency is the fitted concentration of half-maximal effect
# Setup Conditions: cell-free medium, autofluorescence 405/460 nm (blue); series mostly up to 46 µM
Calls of active or inactive are those of the source. Calls come from the whole dose curve; as a rule, active = well fitted curve in the direction sought with a large enough effect in the repeat runs; inconclusive = weak or mixed curves; inactive = flat fitted curve, though single readings scatter.
Quantity Measured: Potency

Smiles Data	Potency
CCCCC[C@H](O)/C=C/[C@@H]1[C@H]2C/C(=C/CCCC(=O)O)O[C@H]2C[C@H]1O	inactive
O=C(O)c1cccc(/C=C2/C[C@@H]3[C@@H](/C=C/[C@@H](O)C4CCCCC4)[C@H](O)C[C@@H]3O2)c1	inactive
CCCC(=O)O[C@]1(C(=O)COC(=O)CC)[C@@H](C)C[C@H]2[C@@H]3CCC4=CC(=O)C=C[C@]4(C)[C@@]3(F)[C@@H](O)C[C@@]21C	inactive
C=C1c2c(Cl)ccc(O)c2C(O)=C2C(=O)[C@]3(O)C(O)=C(C(N)=O)C(=O)[C@@H](N(C)C)[C@@H]3[C@@H](O)[C@H]12	inactive
CC(=O)O[C@H]1C[C@@H]2CC[C@@H]3[C@H](CC[C@@]4(C)[C@H]3C[C@H](N3CC[N+](C)(C)CC3)[C@@H]4OC(C)=O)[C@@]2(C)C[C@@H]1N1CC[N+](C)(C)CC1	inactive

Next item in the queue.
Respond only with Potency recorded for C[C@H](O)[C@H](O)[C@H]1CNc2nc(N)[nH]c(=O)c2N1
12.6 µM (active)
